# Tested on: UACC-257 melanoma
# METHOD: NCI tumour cell line growth inhibition, 48 h
Each entry below carries its recorded TGI.
ENDPOINT LABEL: TGI

[[record]]
compound = "O=C(O)c1cc2ccccc2c(N=Nc2ccccc2)c1O"
result = "30.5 µM"

[[record]]
compound = "CN=C(N)N/N=C(\\C)c1ccc2c(c1)Cc1cc(/C(C)=N/NC(N)=NC)ccc1-2"
result = "> 100 µM"

[[record]]
compound = "O=C(O)C/C(=C\\c1ccco1)C(=O)O"
result = "> 100 µM"

[[record]]
compound = "Cc1ccccc1NC(=O)C(=O)C(C#N)c1ccc(Cl)cc1 (stereo unspecified)"
result = "> 100 µM"

[[record]]
compound = "O=C(CN1CCN(Cc2ccccc2)CC1)c1ccc2[nH]c(=O)oc2c1"
result = "> 100 µM"

[[record]]
compound = "C=CCn1c(=O)c2ccccc2[n+]2c(C)c(C(=O)OCC)sc12"
result = "> 100 µM"

[[record]]
compound = "CCOC(=O)c1c2c3c(cccc3[nH]c1=O)Sc1ncccc1-2"
result = "> 100 µM"

[[record]]
compound = "CC(=O)NCCc1c2c(c3nccc4c3c1Nc1ccccc1-4)OCS2"
result = "27 µM"

[[record]]
compound = "CC(=O)ON(C(C)=O)c1ccc(-c2nc3ccccc3s2)cc1"
result = "> 83.5 µM"

[[record]]
compound = "Cc1c(C#N)c2nnn(-c3ccc(Cl)cc3)c(=O)n2c1-c1ccccc1"
result = "33.6 µM"

[[record]]
compound = "CCC(C#N)(c1ccccc1)N(CCc1ccccc1)C(=O)c1ccccc1 (stereo unspecified)"
result = "> 100 µM"


----------
Form field: TGI (one value per entry).
# Tested on: DMS 114 small cell lung
# METHOD: NCI tumour cell line growth inhibition, 48 h
ENDPOINT LABEL: TGI

[[record]]
compound = "CC(C)(C)OC1=C(OC(C)(C)C)C(O)(c2ccccc2)C1=O (stereo not drawn)"
result = "> 100 µM"

[[record]]
compound = "COc1cc(/C=C/c2ccncc2)cc(OC)c1OC"
result = "> 100 µM"

[[record]]
compound = "CCOC(=O)Nc1cc2nnc(-c3ccccc3)nc2c(N)n1"
result = "> 100 µM"

[[record]]
compound = "OC1[C@H]([C@H]2CCCC[C@@H]2O)CCC[C@@H]1[C@@H]1CCCC[C@H]1O (stereo partly drawn)"
result = "> 100 µM"

[[record]]
compound = "COc1cccc2c1C(=O)C=CC2=O"
result = "10.3 µM"

[[record]]
compound = "O=C(Nc1ccccc1-c1n[nH]c(=S)[nH]c1=O)C(F)(F)F"
result = "> 100 µM"

[[record]]
compound = "CC(C)/C=C1\\CCC(CN2CCCC2)C1=O (stereo not drawn)"
result = "34.5 µM"

[[record]]
compound = "Cc1ccccc1NC(=O)C(=O)C(C#N)c1ccc(Cl)cc1 (stereo not drawn)"
result = "> 100 µM"

[[record]]
compound = "C=C(CN(C)C)C(=O)c1ccccc1C"
result = "42.5 µM"

[[record]]
compound = "CCc1ccc(N=Cc2cc(OC)c(OC)c(OC)c2)cc1"
result = "76.1 µM"

[[record]]
compound = "O=C1[C@@H]2C(c3ccccc3Br)=NO[C@@H]2C(=O)N1c1ccc(Cc2ccc(N3C(=O)[C@H]4C(c5ccccc5Br)=NO[C@H]4C3=O)cc2)cc1"
result = "> 100 µM"

[[record]]
compound = "O=[N+]([O-])c1nc(-c2ccccn2)[nH]c1[N+](=O)[O-]"
result = "38.9 µM"

[[record]]
compound = "CC1(C)CCC[C@@]2(C)C1CCC1(C)C(CCc3ccoc3)/C(=C/OS(=O)(=O)O)CCC12 (stereo partly drawn) (tested in a mixture with another compound)"
result = "> 100 µM"


All values here come from PubChem BioAssay (NCI).
